- Test system: Mannheimia haemolytica
- experiment summary: minimum inhibitory concentration (MIC)
- measurement conditions: isolate (source animal id): 133
observation type: minimum inhibitory concentration (µg/mL)
Lab book: enter the figure in µg/mL, no units written.

CC1(C)S[C@@H]2[C@H](NC(=O)Cc3ccccc3)C(=O)N2[C@H]1C(=O)O : 0.5

Task: Mannheimia haemolytica / minimum inhibitory concentration / C=C[C@]1(C)C[C@@H](OC(=O)CSCCN(CC)CC)[C@]2(C)[C@H](C)CC[C@]3(CCC(=O)[C@H]32)[C@@H](C)[C@@H]1O : value?
Result: 8

====

- Test system: Pasteurella multocida
- experiment summary: minimum inhibitory concentration (MIC)
- measurement conditions: isolate (source animal id): 313
observation type: minimum inhibitory concentration

CN[C@@H]1[C@H](O)[C@H](NC)[C@H]2O[C@@]3(O)C(=O)C[C@@H](C)O[C@H]3O[C@@H]2[C@H]1O : 16 µg/mL

Task: Param item = CCCN1C[C@H](C)[C@@H](O)[C@](C)(O)[C@@H](CC)OC(=O)[C@H](C)[C@@H](O[C@H]2C[C@@](C)(OC)[C@@H](O)[C@H](C)O2)[C@H](C)[C@@H](O[C@@H]2O[C@H](C)C[C@H](N(C)C)[C@H]2O)[C@](C)(O)C[C@H]1C ; retrieve measured minimum inhibitory concentration.
Result: > 8 µg/mL

Task: Form field: reported minimum inhibitory concentration of CO/N=C(\C(=O)N[C@@H]1C(=O)N2C(C(=O)O)=C(CSC(=O)c3ccco3)CS[C@H]12)c1csc(N)n1
Result: ≤ 0.25 µg/mL

Task: # input molecule: CC[C@H]1OC(=O)C[C@@H](O)[C@H](C)[C@@H](O[C@@H]2O[C@H](C)[C@@H](O)[C@H](N(C)C)[C@H]2O)[C@@H](CCN2C[C@H](C)C[C@H](C)C2)C[C@@H](C)C(=O)/C=C/C(C)=C/[C@@H]1CO[C@@H]1O[C@H](C)[C@@H](O)[C@@H](OC)[C@H]1OC ; wanted: its minimum inhibitory concentration
Result: > 16 µg/mL
